System: Plasmodium berghei
assay name: Screen against P. berghei liver stage (PbLuc), transformed with Luciferase, at 10uM
Format: functional, HepG2
particulars: tested at 10 uM
Among all 69,000 compounds or so, about 8,600 (12%) showed an effect of 50% or more. The sample holds strong results, similar compounds and a random draw of the others, so the mix is not that of the screen.
assay metric: INHIBITION
Please append the unit to your numeric answer.

Examples from the recorded data:
Input line: Kindly indicate its recorded INHIBITION. Item: `Cc1csc(C2(NCc3nc(-c4ccco4)oc3C)CCCC2)n1`
Output line: 64.5%

Input line: Recall and state the measured INHIBITION for O=C(O)c1ccc(=O)n(CC(c2ccc(F)cc2)N2CCCCCC2)c1 (stereo not given) .
Output line: 14.65%

Input line: Specify INHIBITION for CCC(CC)c1nnc(NC(=O)NC(C)Cn2cccn2)s1 (stereo not given) and stop.
Output line: 27.4%

Input line: State, in one line, measured INHIBITION of CC(c1nc(C2CC2)no1)N(C)Cc1ccc(Cl)cc1 (stereo not given)
Output line: 43.1%

Input line: Find the measured INHIBITION of `Cc1cccc(CN2CCN(C(=O)c3cc(C4CC4)[nH]n3)CC2)c1` and report it.
Output line: -24.2%

Input line: Return INHIBITION for the following compound: `N#Cc1ccc(CN2CCN(C(=O)c3cc(C4CC4)[nH]n3)CC2)cc1`
Output line: 84.2%

Input line: Please give measured INHIBITION of the following entry: Cc1csc(C2(NCC(O)COC(C)C)CCCC2)n1 (stereo not given)
Output line: 9.41%

Input line: In one line, give reported INHIBITION of the entry `CC(C)c1cc(C(=O)N2CCCN(Cc3ccccc3)CC2)n[nH]1` .
Output line: 48.4%

Others:
Input line: Look up and report measured INHIBITION for this entry: Fc1ccccc1C(CNc1ccncn1)N1CCCC1 (stereo not given)
Output line: 43.4%

Input line: In one line, give reported INHIBITION of the entry `CCn1cnnc1C1CCN(C(=O)c2c(C)oc(C)c2C)CC1` .
Output line: 46.7%

Input line: Supply INHIBITION value. Item: `CC(C)n1cnnc1CNC(=O)c1cnn(Cc2ccccc2)c1`
Output line: -24.4%

Input line: Input Cn1cc(C(=O)N2CCCC(c3ccncc3)C2)cn1 (stereo not given) , output reported INHIBITION.
Output line: -16.5%

Input line: Tell me its INHIBITION given Cc1cc(CN2CCN(C(=O)NC(C)Cn3cccn3)CC2)no1 (stereo not given) as the entry.
Output line: -17.78%

Input line: Quick one: give measured INHIBITION for `Cc1csc(C2(NCc3nc(-c4ccco4)no3)CCCC2)n1`
Output line: 62%

Input line: Query INHIBITION for `CC(C)c1cc(C(=O)N2CCN(Cc3ccc(C#N)cc3)CC2)n[nH]1`
Output line: 82.5%

###

Test system: Plasmodium berghei
assay name: Screen against P. berghei liver stage (PbLuc), transformed with Luciferase, at 10uM
Assay type: functional, HepG2
particulars: tested at 10 uM
Screen size: about 69,000 compounds; about 8,600 (12%) showed an effect of 50% or more. Only a selection was taken, and strong results are over-represented in it overall.
Here, each record is paired with measured INHIBITION data.
# include the unit after the value

Input line: Report INHIBITION for `CCCN1CCC(Cc2noc(-c3cc4cccnc4nc3C)n2)CC1`
Output line: 12.9%

Input line: Identify the reported INHIBITION for the following entry. `N#Cc1ccnc(N2CCC(NCCN3CCCC3)CC2)c1`
Output line: 57.3%

Input line: Identify measured INHIBITION corresponding to Cn1cc(C(=O)N2CCCC(Cc3cccc4ncccc34)C2)cn1 (stereo not given)
Output line: 85.7%

Input line: Let me know recorded INHIBITION for `Cc1noc([C@H]2COC[C@H]3CN(C(=O)Cc4ccsc4)C[C@H]32)n1` , thanks.
Output line: -32%

Input line: // fetch INHIBITION given entry CCOCC(=O)NCC(Cc1cccc(F)c1)N1CCCCC1=O (stereo not given)
Output line: 54.1%

Input line: # return recorded INHIBITION for entry Cc1cnn(C2CN(CC(O)Cn3cccn3)C2)c1 (stereo not given)
Output line: 36.6%

Input line: Supply measured INHIBITION of Cc1cnn(C2CN(CC(O)c3ccc(F)cc3)C2)c1 (stereo not given) in your reply.
Output line: -30.1%

Input line: Retrieve INHIBITION measured for Fc1cnc(NCC2Cn3nnc(-c4ccccc4)c3CO2)nc1 (stereo not given) and print it.
Output line: 50.9%

Now, please, on to the next molecule.
Input line: // Input: O=C1CCCN1C(CNS(=O)(=O)C1CC1)Cc1cccc(F)c1 (stereo not given) . Output its INHIBITION only.
Output line: 58.5%

###

Measured INHIBITION, listed per entry for reference.
Tested on: Plasmodium berghei
assay name: Screen against P. berghei liver stage (PbLuc), transformed with Luciferase, at 10uM
Format: functional, HepG2
particulars: tested at 10 uM
The whole screen tested about 69,000 compounds, of which about 8,600 (12%) showed an effect of 50% or more. Many of the other results were omitted from the sample, so strong results are more common in it than they were.
Hi! Could you send only the number? It should be in %, unit omitted.

Here's what some known entries look like.
Input line: Give me measured INHIBITION, please, for this compound: Cc1cnn(C2CCCN(C(=O)c3cc(C4CC4)on3)C2)c1 (stereo not given)
Output line: 59

Input line: Answer with the recorded INHIBITION of Cc1nc2cc(CNC(=O)C3CC(=O)N(CCN(C)C)C3)ccc2n1C (stereo not given) only.
Output line: -4.35

Input line: Please give the documented INHIBITION of Cc1nnc(NC(=O)NC2CCOc3ccccc32)s1 (stereo not given)
Output line: 13.5

Input line: Note down INHIBITION recorded for O=C(Nc1nnc(C2CC2)s1)NC1CCOc2ccccc21 (stereo not given)
Output line: 54.4

Next:
Input line: Read the entry O=C(c1ccon1)N1CCCC(n2cncn2)C1 (stereo not given) and write its reported INHIBITION.
Output line: 9.82

###

System: Plasmodium berghei
assay name: Screen against P. berghei liver stage (PbLuc), transformed with Luciferase, at 10uM
Assay type: functional, HepG2
particulars: tested at 10 uM
Hit rate of the full screen: of about 69,000 compounds, about 8,600 (12%) showed an effect of 50% or more. Shown is part of a subset that was picked to be rich in strong results.
Define the label as class 1 when INHIBITION is strictly less than 10% and as class 0 in all remaining cases.

Answered cases to consult:
Input line: Please state whether INHIBITION is below 10% for `CCc1cnc2c(c1Nc1ccc(C)c(F)c1)c(=O)n(C)c(=O)n2C`
Output line: class 0

Input line: Please indicate whether the reported INHIBITION of Cc1cnn(CC2CCCN2C(=O)c2ccc(OCC3CC3)nc2)c1 (stereo not drawn) is strictly below 10%.
Output line: class 1

Input line: Does the reported INHIBITION of the following molecule sit strictly below 10%? `O=C(O)[C@@H]1CN(C(=O)CCN2CCCCC2)C[C@H]1c1ccccc1`
Output line: class 1

Input line: Does the reported INHIBITION of the following molecule sit strictly below 10%? COC1CCCN(Cc2cc(O)c3cc(C)cc(C)c3n2)C1 (stereo not drawn)
Output line: class 0

Input line: Record Cc1cc(C)c2nc(CN3CCCC(c4cc[nH]n4)C3)cc(O)c2c1 (stereo not drawn) : is its INHIBITION strictly below 10%?
Output line: class 0

Further cases:
Input line: Problem: For the molecule `COCCO[C@@H]1CCN(C(=O)c2ccc(C)o2)[C@@H]1Cc1cccnc1` , is INHIBITION under 10%?
Output line: class 1

Input line: Hi there! Is INHIBITION for `COc1ncccc1CNCc1c(C)nn(C)c1N1CCOCC1` below 10%, do you know?
Output line: class 1

###

In this section we review reported INHIBITION values for a set of molecules.
Tested on: Plasmodium berghei
assay name: Screen against P. berghei liver stage (PbLuc), transformed with Luciferase, at 10uM
Assay type: functional, HepG2
particulars: tested at 10 uM
Screen size: about 69,000 compounds; about 8,600 (12%) showed an effect of 50% or more. What follows is part of a selection rich in strong results, with near analogues and random picks from the rest.
Respond numerically; units are % and should not be typed.

Example entries begin here.
Input line: Complete the entry with INHIBITION for `CC1CCN(CCCNS(=O)(=O)c2cccc(F)c2)CC1`
Output line: -14.9

Input line: Quickly give me recorded INHIBITION for `CN(C)C(=O)N1C[C@H](Oc2ccccn2)[C@H]2OCCC[C@H]21`
Output line: -6.32

---
Input line: State its INHIBITION: `c1cncc(OCc2noc3c2CN(Cc2ccoc2)CC3)c1`
Output line: -3.95

Input line: Please list INHIBITION recorded for the molecule `O=S(=O)(Cc1ccccc1F)NCCCN1CCCCC1`
Output line: 36.3

Input line: // fetch INHIBITION given entry `Cc1nsc(C(=O)NCCCc2ccccc2)n1`
Output line: 58.1

Input line: Please indicate INHIBITION recorded for `CCc1cnc(C)nc1N1CCN(C(N)=O)CC1`
Output line: 46.1

Input line: Give INHIBITION for the following molecule: `Cc1c(C(=O)NC(C)C)nnn1-c1cccc(C(F)(F)F)c1`
Output line: 15.2

Input line: Give the reported value of INHIBITION for this record: `CNC(=O)CNC(=O)NCc1cc2c(s1)CCC(C)(C)C2`
Output line: 26.1

Input line: For the molecule `CNC(=O)[C@H]1C[C@@H]2CN(Cc3c(C)noc3C)C[C@@H]2N1C(C)=O` , give its measured INHIBITION value.
Output line: 22.2

Input line: Complete the entry with INHIBITION for `CC(=O)N(C)Cc1nn(C)c2c1CN(Cc1ccsc1)C2`
Output line: -37.9

Input line: Specify INHIBITION for `Cc1noc(C)c1CN1CCC(c2ccnn2CCO)CC1` and stop.
Output line: -43.5

Input line: Identify measured INHIBITION associated with `CC(=O)NCc1nn(C)c2c1CN(Cc1ccsc1)C2`
Output line: 69.7

Input line: Give the reported value of INHIBITION for this record: Cc1nccn1-c1cccc(N2CCC(OCC3CCCCO3)CC2)n1 (stereo not drawn)
Output line: 95.9

Input line: Please give measured INHIBITION of the following entry: `CC(=O)NCc1noc2c1CN(Cc1cnn(C)c1)CC2`
Output line: 46.7

Input line: Please supply the value of reported INHIBITION for the item `Cc1ccc(-c2noc([C@@H]3Cc4nc[nH]c4CN3)n2)cc1`
Output line: 36.2

Input line: Return INHIBITION (reported value) for this molecule: `CC1CCN(CCCNS(=O)(=O)Cc2ccccc2F)CC1`
Output line: 26.9

Input line: Item `Cc1nsc(C(=O)NCCc2ccc(Cl)cc2)n1` : provide INHIBITION
Output line: 20.9

Input line: Find the measured INHIBITION of `NC(=O)CCN1CCc2onc(-c3ccccc3F)c2C1` and report it.
Output line: -62.1

Input line: Give the measured INHIBITION for COc1ccccc1CN(Cc1cccnc1)CC1CCCO1 (stereo not drawn)
Output line: 42.6

Input line: Provide INHIBITION value for the following molecule: `CC(C)N(C)Cc1nnc2n1CCCN(S(=O)(=O)C1CC1)C2`
Output line: 36.4

Ref: ChEMBL document CHEMBL4513216
